Data provenance: patent US20230138930A1

Molecular target: T1, human TF on cells (MDA-MB-231, BxPC-3 and other tumor cells with high TF expression) (human, UniProt P13726 33-295)
T1 construct: whole, on cells; Endogenous expression on tumor cell lines; also called cell surface TF
Assay: flow cytometry on MDA-MB-231 cells, antibody at 1 µg/mL
In this section we review reported MFI values for a set of binders.
quantity-measured: MFI (MFI)

binder="TF-mAb-H31 (antibody, V domains shown) VH: EVQLVQSGAEVKKPGESLKISCKGSGYSFTSYWMNWVKQMPGKGLEWMGMIYPADSETRLNQKFKDKATLSVDKSISTAYLQWSSLKASDTAMYYCAREDYGSSDYWGQGTTVTVSS VL: EIVLTQSPATLSLSPGERATLSCSASSSVSYMNWYQQKPGQAPRIWIYGISNLASGIPARFSGSGSGTDFTLTISSLEPEDFAVYYCQQKSSFPWTFGGGTKVEIK" unit_annotation=MFI endpoint_result=3080
binder="TF-mAb-Ch (antibody, V domains shown, Variable regions of TF-mAb-SC1 cloned onto human IgG1 heavy chain constant region and human kappa constant region; also called human-mouse chimeric antibody) VH: QVQLQQPGAELVRPGASVKLSCKASGYSFISYWMNWVKQRPGQGLEWIGMIYPADSETRLNQKFKDKATLTVDKSSSTAYMQLSSPTSEDSAVYYCAREDYGSSDYWGQGTTLTVSS VL: EILLTQSPAIIAASPGEKVTITCSASSSVSYMNWYLQKPGSSPKIWIYGISNLASGVPARFSGSGSGTSFSFTINSMETEDVATYYCQQKSSFPWTFGGGTKLEIK" unit_annotation=MFI endpoint_result=3370
